# ASSAY SYSTEM: His-hMAGL (recombinant polyhistidine tagged human MAGL protein) (Homo sapiens, UniProt Q99685)
# Construct: made in house; host or cells: E. coli BL21(DE3)
# Sequence (Q99685 whole entry): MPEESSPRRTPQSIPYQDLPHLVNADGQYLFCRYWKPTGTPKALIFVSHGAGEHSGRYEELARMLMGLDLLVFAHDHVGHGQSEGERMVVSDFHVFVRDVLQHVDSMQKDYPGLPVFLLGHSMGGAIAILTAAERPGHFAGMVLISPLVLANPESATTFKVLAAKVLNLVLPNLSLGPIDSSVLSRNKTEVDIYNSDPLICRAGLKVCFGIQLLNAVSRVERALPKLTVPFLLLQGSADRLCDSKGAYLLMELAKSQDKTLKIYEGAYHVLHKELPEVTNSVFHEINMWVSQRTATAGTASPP
# TEST: Measurement of MAGL inhibitory activity (arachidonic acid production from 2-arachidonylglycerol, RapidFire-mass spectrometry)
# Format: biochemical
# ASSAY CONDITIONS: MAGL inhibitory rate, test compound 10 μM, 60 min preincubation, 2-arachidonylglycerol substrate
What inhibition at 10 µM was measured for each of the following?
Answers are plain numbers, in %.

Observe how each entry below is paired with its result.
Inquiry: Which inhibition at 10 µM reading was recorded for the molecule O=C1CCC2(CN(C(=O)c3sc(-c4cccc(C(F)(F)F)c4)cc3Cl)C2)N1 [Example 177] ?
Reply text: 98

Inquiry: Which inhibition at 10 µM reading was recorded for the molecule O=C1CCC2(CN(C(=O)c3sc(-c4cccc(OCC5CC5)c4)cc3Cl)C2)N1 [Example 182] ?
Reply text: 98

Inquiry: Which inhibition at 10 µM reading was recorded for the molecule O=C1CCC2(CN(C(=O)c3sc4cc(-c5ccc(C(F)(F)F)cc5)ccc4c3Cl)C2)N1 [Example 197] ?
Reply text: 90

Inquiry: Which inhibition at 10 µM reading was recorded for the molecule COc1ccc2sc(C(=O)N3CC4(CCC(=O)N4)C3)c(Br)c2c1 [Example 152] ?
Reply text: 100

Inquiry: Which inhibition at 10 µM reading was recorded for the molecule Cc1cc(C(F)(F)F)cc2sc(C(=O)N3CCC4(COC(=O)N4)C3)c(Cl)c12 (stereo not drawn) [Example 341] ?
Reply text: 100

Inquiry: Which inhibition at 10 µM reading was recorded for the molecule Cc1cc(OC(F)(F)F)cc2sc(C(=O)N3CCC4(COC(=O)N4)C3)c(Cl)c12 (stereo not drawn) [Example 331] ?
Reply text: 101

Inquiry: Which inhibition at 10 µM reading was recorded for the molecule O=C1NC2(CO1)CN(C(=O)c1sc3cc(Br)cc(F)c3c1Cl)C2 [Example 285] ?
Reply text: 100

Inquiry: Which inhibition at 10 µM reading was recorded for the molecule O=C1CCC2(CN(C(=O)N3CCC(C(c4ccccc4)c4ccccc4)CC3)C2)N1 [Example 112] ?
Reply text: 101

Field: inhibition at 10 µM. Fill in for each record below.
1. O=C1CCC2(CN(C(=O)c3cc4ccc(OCc5ccc(Cl)cc5Cl)cc4s3)C2)N1 [Example 145]
2. Cc1ccc(CO[C@H]2C[C@@H](C(=O)N3CC4(COC(=O)N4)C3)C2)cc1Cl [Example 356]
3. COc1cc(F)c2c(Cl)c(C(=O)N3CC4(COC(=O)N4)C3)sc2c1Cl [Example 294]
4. Cc1cccc(F)c1-c1ccc2c(Cl)c(C(=O)N3CC4(CCC(=O)N4)C3)sc2c1 [Example 203]
5. O=C1CCC2(CN(C(=O)N3CCC(C(F)(c4ccccc4)c4ccccc4)CC3)C2)N1 [Example 237]
6. O=C1CCC2(CN(C(=O)c3ccc(-c4ccc5cnsc5c4)cc3)C2)N1 [Example 73]
7. O=C1NC2(CO1)CN(C(=O)c1sc3cc(C4=CCC(F)(F)CC4)cc(F)c3c1Cl)C2 [Example 309]
8. O=C1NC2(CCN(C(=O)c3sc4cc(OC(F)(F)F)c(F)cc4c3Cl)C2)CO1 (stereo not drawn) [Example 339]

Reply text:
87
100
100
101
101
98
101
100

Field: inhibition at 10 µM. Fill in for each record below.
1. Cc1ccc(Cl)c(-c2ccc(C(=O)N3CC4(CCC(=O)N4)C3)cc2)c1 [Example 81]
2. O=C1CCC2(CN(C(=O)c3sc4cc(-c5cccc(C6CC6)c5)ccc4c3Cl)C2)N1 [Example 218]

Reply text:
[94, 100]

Values from patent US10610520B2
